test system: phosphorylation of RSK; test: High-throughput microscopy, phosphorylation of RSK; assay type: cell-based; details: Homo sapiens, A-375, A375 cells, anisomycin stimulation, read-out: Cellular EC50 pRSK
pEC50: −log10 of the molar value.
Attribute: pEC50

Problem: Under phosphorylation of RSK: pEC50 value of CN(C)C/C=C/C(=O)Nc1cccc(C(=O)Nc2ccc(Nc3nccc(-c4cccnc4)n3)cc2)c1 ?
Result: < 5.00

Problem: Another molecule to look at: CN(C)C/C=C/C(=O)Nc1cccc(C(=O)Nc2ccc(Nc3nccc(/C(C#N)=C4\Nc5ccccc5S4)n3)cc2)c1
Result: < 5.00

Problem: And then Cc1cc(NC(=O)c2cccc(NC(=O)/C=C/CN(C)C)c2)ccc1Nc1nccc(-c2cccnc2)n1 , what is it?
Result: < 5.00

Further cases:
Problem: For the record CN(C)C/C=C/C(=O)Nc1cccc(C(=O)Nc2ccc(Nc3nccc(-c4c(-c5ccccc5)nn5ccccc45)n3)cc2)c1 , what value of pEC50 is listed for phosphorylation of RSK?
Result: 7.70
